system: Wolbachia pipientis; test: Anti-Wolbachia Cell-Based Screen; type: functional; design: scale not given: in the data most compounds retested in dose-response had high values; details: 5 µM
The campaign covered roughly 48,000 compounds. About 13,000 (27%) showed an effect of 50% or more. This is one part of the list.
Answer each item with its documented Percent Effect.

Briefly, Percent Effect measured for "O=C(O)C(F)(F)F.O=C(O)C(F)(F)F.c1cncc(COC[C@H]2CC[C@H]3[C@H](CCN3Cc3nccs3)O2)c1" : 8.415%

Briefly, Percent Effect measured for COCCN1CCCC12CCCN(c1ncccn1)C2 (stereo not drawn) : -3.4%

Briefly, Percent Effect measured for "CCN(CC)C[C@H]1CN2CC[C@H]1C[C@@H]2CNC(=O)Nc1ccsc1" : 12.78%

Briefly, Percent Effect measured for "CC(=O)N1C[C@H]2CNC[C@@]2(C(=O)NCCNc2ccncc2C)C1" : -5.626%

Briefly, Percent Effect measured for "O=C([C@@H]1CC[C@@H]2[C@@H](CCN2Cc2ccncc2)O1)N1CCCCO1" : -7.886%

Briefly, Percent Effect measured for "Cc1cc(CN2C[C@@H]3COC[C@]3(COCC(=O)N(C)C)C2)no1" : 104.2%

Briefly, Percent Effect measured for "Cc1cc(CN2C[C@@H]3COC[C@]3(CNC(=O)N(C)C)C2)no1.O=C(O)C(F)(F)F" : -12.05%

Briefly, Percent Effect measured for "Cc1cccc(CN2C[C@@H]3COC[C@]3(COCC(=O)N(C)C)C2)n1.O=C(O)C(F)(F)F.O=C(O)C(F)(F)F" : 109.1%

Briefly, Percent Effect measured for "COC[C@]12COC[C@H]1CN(Cc1ccc3ccccc3n1)C2.O=C(O)C(F)(F)F.O=C(O)C(F)(F)F" : -16.09%

Briefly, Percent Effect measured for "Cc1cc(CN2C[C@@H]3COC[C@]3(COCc3csc(C)n3)C2)no1.O=C(O)C(F)(F)F" : -7.222%

Briefly, Percent Effect measured for "COC[C@H]1CC[C@@H]2[C@@H](CCN2Cc2ccco2)O1.O=C(O)C(F)(F)F" : 137.5%

Briefly, Percent Effect measured for "O=C(C[C@H]1[C@H]2CN(Cc3ccncc3)C[C@@H]12)N1CCCC1.O=C(O)C(F)(F)F.O=C(O)C(F)(F)F" : 16.46%

Briefly, Percent Effect measured for "CO[C@H]1CCN(S(=O)(=O)N(C)C)[C@@H]2CN(Cc3cccnc3)C[C@H]12.O=C(O)C(F)(F)F.O=C(O)C(F)(F)F" : 0.8682%

Briefly, Percent Effect measured for "CN(Cc1nc2ccsc2c(=O)[nH]1)C[C@@H]1CCCN2CCCC[C@H]12" : 9.481%

Briefly, Percent Effect measured for "O=C(C[C@@H]1COC[C@H]2CN(Cc3cccnc3)C[C@@H]12)N1CCCC1.O=C(O)C(F)(F)F.O=C(O)C(F)(F)F" : 109.1%

Briefly, Percent Effect measured for "O=C(C[C@@H]1COC[C@H]2CN(C3CCC3)C[C@@H]12)NCc1cccnc1.O=C(O)C(F)(F)F.O=C(O)C(F)(F)F" : 108.6%

Briefly, Percent Effect measured for CC(c1ccccc1F)N1CCN(C(=O)Cc2ccncc2)CC1 (stereo not drawn) : -4.813%

Briefly, Percent Effect measured for "CCNC(=O)CN1CCSC2(CCCCC2)C1" : -30.52%

---

test system: Wolbachia pipientis; experiment: Anti-Wolbachia Cell-Based Screen; type: functional; design: scale not given: in the data most compounds retested in dose-response had high values; conditions: 5 µM
In all, about 48,000 compounds went through this assay and about 13,000 (27%) showed an effect of 50% or more. This is one part of the list.
OBSERVABLE: Percent Effect (%)
Quick reminder: number only, in %, skip the unit.

Briefly, Percent Effect measured for "CS(=O)(=O)N1CCC2(CCCN(Cc3ccccn3)C2)CC1.O=C(O)C(F)(F)F" : 4.513

Briefly, Percent Effect measured for "O=S(=O)(C1CC1)N1CCC2(CCCN(Cc3ccccn3)C2)CC1" : 112.9

Briefly, Percent Effect measured for O=C(O)C(F)(F)F.O=C(O)C(F)(F)F.O=C1N(c2cncnc2)CCC12CCCN(Cc1ccccn1)C2 (stereo unspecified) : -2.82

Briefly, Percent Effect measured for CC(Cn1cccn1)NCc1csc2c1CCCC2 (stereo unspecified) : 12.25

Briefly, Percent Effect measured for "COCCN1CCN(Cc2ccco2)Cc2ccc(C)nc21.O=C(O)C(F)(F)F.O=C(O)C(F)(F)F" : -4.487

Briefly, Percent Effect measured for "Cc1ccc(N2CC[C@@H]3CN(Cc4c[nH]cn4)C[C@@H]3C2)nn1" : -8.039

Briefly, Percent Effect measured for "Cc1cnc(N2CCc3c(cnc(C)c3C(=O)O)C2)nc1.O=C(O)C(F)(F)F" : -4.301

Briefly, Percent Effect measured for "COCCN1C[C@H]2[C@@H](C1)N(C(=O)COc1ccccc1)CC[C@H]2OC" : 0.3223

Briefly, Percent Effect measured for "O=C(Cn1ccc2c(Cl)cccc21)N1CCC2(CC1)OCCO2" : 11.16

Briefly, Percent Effect measured for CC(Cn1cccn1)NCc1csc(-c2cccs2)n1 (stereo unspecified) : 1.256

Briefly, Percent Effect measured for CC(=O)N1CCOCC2(CCCNC2)C1 (stereo unspecified) : -30.9

Briefly, Percent Effect measured for "CC(C)=CCN1CCN(C(=O)COc2ccccc2)[C@H]2CS(=O)(=O)C[C@H]21" : -38.59

Briefly, Percent Effect measured for COc1ccc(CNC(C)Cn2cccn2)c(OC)c1OC.Cl (stereo unspecified) : 98.57

Briefly, Percent Effect measured for "CC(C)(C)c1cc(=O)[nH]c(C2(N)CCCCC2)n1.Cl" : -23.57

Briefly, Percent Effect measured for c1ccc(CCN2CCOC3(CCc4ccccc43)C2)nc1 (stereo unspecified) : -3.634

Briefly, Percent Effect measured for "CC(C)c1ocnc1C(=O)N1CCC2(CC1)OCCO2" : -1.453

Briefly, Percent Effect measured for "Cc1noc(C)c1CN1CCN(C)c2ncccc2C1.O=C(O)C(F)(F)F.O=C(O)C(F)(F)F" : -16.26

Briefly, Percent Effect measured for "CN1CCN(C[C@@H]2OC[C@H]3CN(Cc4ccncc4)CC[C@H]32)CC1" : 117.8

Briefly, Percent Effect measured for "Cc1ncsc1CN1CCO[C@H]2[C@H](Oc3ccccn3)CC[C@@H]21.O=C(O)C(F)(F)F.O=C(O)C(F)(F)F" : -5.284

Briefly, Percent Effect measured for CC1CN(C)CCN1C(=O)COc1cccc(Oc2ccccn2)c1 (stereo unspecified) : 82.16

Briefly, Percent Effect measured for COc1ccc(CNC(C)Cn2cccn2)cc1OC (stereo unspecified) : 104.4

Briefly, Percent Effect measured for "Cc1ccccc1C1(CN)CCOCC1" : 1.37

Briefly, Percent Effect measured for "O=C(NC[C@]12COC[C@H]1CN(Cc1ccncc1)C2)c1ccno1.O=C(O)C(F)(F)F.O=C(O)C(F)(F)F" : -6.901

Briefly, Percent Effect measured for "O[C@@]1(CNCCCOc2cccnc2)CCCN2CCCC[C@@H]21" : -22.25

Briefly, Percent Effect measured for "O=C1[C@H]2CN(Cc3ccoc3)C[C@@H]2CCN1Cc1cccnc1" : -2.353

Briefly, Percent Effect measured for CN(C)C(=O)N1CCC2(C1)CN(c1cccnc1)C(=O)CN2C (stereo unspecified) : 109.4

Briefly, Percent Effect measured for "Cc1nc(CN2CCN(C(=O)COc3c(C)ccc(C)c3C)CC2)no1" : 0.1735

Briefly, Percent Effect measured for "Cc1nc(CN2CCOC3(CCCC3)C2)oc1C" : 98.63

Briefly, Percent Effect measured for CC(C)c1cc(N2CCC3(CCN(C)C3)C2)ncn1 (stereo unspecified) : -5.942

Briefly, Percent Effect measured for "CN1CCN([C@H]2COC[C@@H]3CN(Cc4cccnc4)C[C@@H]32)CC1" : 3.012

Briefly, Percent Effect measured for "Cn1ccnc1CN1CC[C@H]2CO[C@H](CNc3ncccn3)[C@H]2C1.O=C(O)C(F)(F)F.O=C(O)C(F)(F)F.O=C(O)C(F)(F)F" : 100.8

Briefly, Percent Effect measured for O=C(O)C(F)(F)F.O=C(O)C(F)(F)F.O=S(=O)(C1CC1)N1CCC2(CCCN(Cc3ccccn3)C2)C1 (stereo unspecified) : 113.2

Briefly, Percent Effect measured for "CN(C)CCN1CCN(Cc2ccco2)Cc2cccnc21.O=C(O)C(F)(F)F.O=C(O)C(F)(F)F.O=C(O)C(F)(F)F" : 95.25

Briefly, Percent Effect measured for "O=C(c1ccno1)N1CC[C@@H]2CN(C3CCOCC3)CCO[C@@H]2C1" : 85.56

Briefly, Percent Effect measured for COc1cc(CNCC(O)c2ccc(C)cc2)cc2c1OCCO2.Cl (stereo unspecified) : 4.109

Briefly, Percent Effect measured for CC(C(=O)N1CCCC1)N1CCCN(C(=O)Oc2ccccc2)CC1 (stereo unspecified) : 21.65

Briefly, Percent Effect measured for Cc1noc(C)c1CN1CCCC2(C1)CN(c1nncs1)CCO2 (stereo unspecified) : -8.738

Briefly, Percent Effect measured for "CS(=O)(=O)NC[C@H]1OC[C@@H]2CN(Cc3cccnc3)CC[C@@H]21" : 117.5

Briefly, Percent Effect measured for "COCCN1CCN(Cc2ccncc2)c2ncccc2C1.O=C(O)C(F)(F)F.O=C(O)C(F)(F)F.O=C(O)C(F)(F)F" : -7.245

Briefly, Percent Effect measured for COc1cc(CNC(C)Cn2cccn2)cc(OC)c1 (stereo unspecified) : 102.9

Briefly, Percent Effect measured for "Cc1nc(CN2CCOC3(CCCC3)C2)no1" : 71.5
